These entries and their values trace back to the kinase profiling compilation of Christmann-Franck et al. (2016).

TARGET_OR_TEST_SYSTEM: CaMK1 (human) (UniProt Q14012)
Sequence (Q14012 whole entry, looked up): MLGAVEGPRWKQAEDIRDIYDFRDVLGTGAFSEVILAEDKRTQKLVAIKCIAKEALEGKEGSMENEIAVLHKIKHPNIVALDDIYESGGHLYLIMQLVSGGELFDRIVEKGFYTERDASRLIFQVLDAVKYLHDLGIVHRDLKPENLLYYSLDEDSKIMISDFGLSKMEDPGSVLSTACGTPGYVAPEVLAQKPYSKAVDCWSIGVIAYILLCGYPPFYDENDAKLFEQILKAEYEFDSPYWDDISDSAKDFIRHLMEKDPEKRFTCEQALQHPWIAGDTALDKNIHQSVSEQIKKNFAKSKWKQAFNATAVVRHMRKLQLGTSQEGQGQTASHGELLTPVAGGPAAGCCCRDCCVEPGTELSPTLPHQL
TEST_METHOD_NOTES: radiometric filter-binding kinase assay
TEST_CONTEXT: compound 1.0 µM
Decision: residual activity >= 90% yields Fulfilled, all other cases yield Not fulfilled.

MOLECULE	LABEL_CLASS
COc1ccc(-n2ncc3cnc(Nc4cc(OC)c(OC)c(OCCCN5CCN(C)CC5)c4)nc32)cc1	Not fulfilled
Oc1ccc(/C=C/c2cc(O)cc(O)c2)cc1	Not fulfilled
Cn1nc(Nc2ccc(F)cc2)c2c(N)ncnc21	Fulfilled
O=C1Nc2nc(-c3c(O)cccc3OCC3CC3)cc(C3CCCNC3)c2CO1 (stereo unspecified)	Not fulfilled
Nc1cccc2c1CN(C1CCC(=O)NC1=O)C2=O (stereo unspecified)	Fulfilled
C=C1C(=O)OC2C1CC/C(C)=C/CCC1(C)OC21 (stereo unspecified)	Fulfilled
COc1cc(O)c2c(c1)[C@H]1OC1C[C@H](O)[C@H](O)C(=O)/C=C\C[C@H](C)OC2=O (stereo partly specified)	Fulfilled
C=CC(=O)N1CCC[C@@H](n2nc(-c3ccc(Oc4ccccc4)cc3)c3c(N)ncnc32)C1	Fulfilled
CC1=C(CO)C(=O)O[C@@H]([C@@H](C)[C@H]2CC[C@H]3[C@@H]4C[C@H]5O[C@]56[C@@H](O)C=CC(=O)[C@]6(C)C4CC[C@]23C)C1 (stereo partly specified)	Not fulfilled
C[C@H]1CCCC(=O)CCC/C=C/c2cc(O)cc(O)c2C(=O)O1	Fulfilled
CCn1c(-c2nonc2N)nc2cncc(CNC3CCNCC3)c21	Fulfilled
O=C(O)c1cc(N=Nc2ccc(S(=O)(=O)Nc3ccccn3)cc2)ccc1O	Fulfilled
COc1cc(O)c2c(c1)/C=C/C[C@H](O)[C@H](O)C(=O)/C=C\C[C@H](C)OC2=O	Fulfilled
NS(=O)(=O)OC[C@@H]1C[C@@H](n2ccc3c(N[C@H]4CCc5ccccc54)ncnc32)C[C@@H]1O	Fulfilled
Oc1ccc2ccccc2c1SSc1c(O)ccc2ccccc12	Not fulfilled
Cc1nc(-c2ccc(OCC(C)C)c(C#N)c2)sc1C(=O)O	Fulfilled
O=C(O)c1ccc(-c2c[nH]c3ncc(-c4ccccc4)cc23)cc1C1CCCC1	Fulfilled
CCCCCc1ccc(/C=C/[C@H](O)[C@@H](CO)NC)cc1	Fulfilled
